B1: LOXL2 (parent)
chain: RLLRFSSQIHNNGQSDFRPKNGRH

variants of: B1; test: protein stability index of a GFP-peptide fusion (GPS, HEK-293T) (PSI 1-6); higher = more stable; conditions: c terminus: a fixed tail appended;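 also: lentivirally expressed fusions sorted by FACS into six bins by GFP to DsRed ratio, PSI derived from sequencing read proportions per bin multiplied by bin number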
Below: a set of entries, each annotated with reported protein stability index.

Study these solved cases before continuing.
> print(dat)
   sequence.variant  endpoint.result
1               I9F             2.32
2              P19L             2.54
3               R1N             2.65
4               R4M             2.81
5               I9K             2.31

**Query** Name the recorded protein stability index of the variant listed here: H10I
**Result** 2.24

**Query** Name the recorded protein stability index of the variant listed here: N21F
**Result** 2.04
